# protocol description: Cytotoxicity against human Chang liver cells assessed as number of viable cells measured after 48 hrs by MTT based colorimetric assay
# Assay type: toxicity, cell-based
Hi! Just check whether IC50 at 48 h is below 6 µM. Below gives Condition met, equal or above gives Condition not met.

Previously resolved entries follow.
compound: CCCCC/C=C\C/C=C\CCCCCCCC(=O)OC(COC(=O)CCCCCCC/C=C\CCCCCCCC)COC(=O)CCCC[P+](c1ccccc1)(c1ccccc1)c1ccccc1 (stereo not given)
class assignment: Condition not met
//
compound: COc1cccc2c1C(=O)c1c(O)c3c(c(O)c1C2=O)C[C@@](O)(C(=O)CO)C[C@@H]3O[C@H]1C[C@H](N)[C@H](O)[C@H](C)O1 [DOXORUBICIN]
class assignment: Condition met

Check if IC50 at 48 h falls below 6 µM for CCCCC/C=C\C/C=C\CCCCCCCC(=O)OCC(COC(=O)CCCC[P+](c1ccccc1)(c1ccccc1)c1ccccc1)OC(=O)CCCC[P+](c1ccccc1)(c1ccccc1)c1ccccc1 (stereo not given) . Condition not met

Find out if reported IC50 at 48 h for C=C(C)[C@@H]1CC[C@]2(COC(=O)CCC(=O)OC(COC(=O)CCCCCCC/C=C\CCCCCCCC)COC(=O)CCCC[P+](c3ccccc3)(c3ccccc3)c3ccccc3)CC[C@]3(C)[C@H](CC[C@@H]4[C@@]5(C)CC[C@H](O)C(C)(C)[C@@H]5CC[C@]43C)[C@@H]12.[Br-] (stereo not given in full) is less than 6 µM Condition not met
